experimental.target: Tyrosine-protein kinase SYK (Homo sapiens, UniProt P43405)
test.description: Inhibition of SYK in human B cells assessed as suppression of anti-IgM-induced CD69 surface expression preincubated for 30 mins followed by anti-IgM addition measured after 3.5 hrs by flow cytometric analysis
Assay type: cell-based
endpoint.label: pIC50
Numbers only, as −log10 of the molar value.

# count of solved cases: 3
CN(C)c1ccc(-c2cc3nccnc3c(NC[C@@H]3CNCCO3)n2)cn1 | 6.50
Cn1cc(-c2cc3nccnc3c(NC[C@H]3CCCNC3)n2)cn1 | 6.90
Cn1cc(-c2cc3nccnc3c(NCC3CNCC(F)(F)C3)n2)cn1 (racemic) | 5.70

Dear reader, for each entry below, please note its pIC50.
1. CN1CCNC[C@H]1CNc1nc(-c2cnn(C)c2)cc2nccnc12
2. Cn1cc(-c2cc3nccnc3c(NC[C@@H]3CNCCC3(F)F)n2)cn1
3. CN(C)c1ccc(-c2cc3nccnc3c(NCC3CNCC(F)(F)C3)n2)cn1 (racemic)
4. CN(C)c1ccc(-c2cc3nccnc3c(NC[C@H]3CNCCN3C)n2)cn1
5. Cn1cc(-c2cc3nccnc3c(NC[C@@H]3CNCCO3)n2)cn1
6. Cn1cc(-c2cc3nccnc3c(OCC3CNCC(F)(F)C3)n2)cn1 (racemic)

1. 6.70
2. 7.10
3. 5.80
4. 6.60
5. 6.80
6. 6.20

----------
Record: pIC50 reported on Aurora kinase B (Homo sapiens, UniProt Q96GD4).
Sequence (Q96GD4 whole entry): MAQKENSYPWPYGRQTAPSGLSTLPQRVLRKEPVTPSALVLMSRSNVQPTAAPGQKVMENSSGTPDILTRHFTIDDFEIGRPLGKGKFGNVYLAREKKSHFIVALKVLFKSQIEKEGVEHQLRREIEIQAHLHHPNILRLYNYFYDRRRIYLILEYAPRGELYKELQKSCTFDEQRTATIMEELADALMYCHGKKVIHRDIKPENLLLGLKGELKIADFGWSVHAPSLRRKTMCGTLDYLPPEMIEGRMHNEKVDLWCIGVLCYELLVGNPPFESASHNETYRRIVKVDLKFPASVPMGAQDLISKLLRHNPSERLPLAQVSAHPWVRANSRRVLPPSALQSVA
One number for each entry, as −log10 of the molar value.

Below: 2 compounds and their reported pIC50.
Cn1cc(-c2cc3nccnc3c(OCC3CNCC(F)(F)C3)n2)cn1 (racemic) | 7.20
CN(C)c1ccc(-c2cc3nccnc3c(NCC3CNCC(F)(F)C3)n2)cn1 (racemic) | 6.30

Moving on to another compound below.
Please report the recorded pIC50 for `O=C1CN(c2cc3nccnc3c(NC[C@H]3CCCNC3)n2)CCN1` .
5.10

----------
experimental.target: Tyrosine-protein kinase JAK1 (Homo sapiens, UniProt P23458)
Sequence (P23458 whole entry): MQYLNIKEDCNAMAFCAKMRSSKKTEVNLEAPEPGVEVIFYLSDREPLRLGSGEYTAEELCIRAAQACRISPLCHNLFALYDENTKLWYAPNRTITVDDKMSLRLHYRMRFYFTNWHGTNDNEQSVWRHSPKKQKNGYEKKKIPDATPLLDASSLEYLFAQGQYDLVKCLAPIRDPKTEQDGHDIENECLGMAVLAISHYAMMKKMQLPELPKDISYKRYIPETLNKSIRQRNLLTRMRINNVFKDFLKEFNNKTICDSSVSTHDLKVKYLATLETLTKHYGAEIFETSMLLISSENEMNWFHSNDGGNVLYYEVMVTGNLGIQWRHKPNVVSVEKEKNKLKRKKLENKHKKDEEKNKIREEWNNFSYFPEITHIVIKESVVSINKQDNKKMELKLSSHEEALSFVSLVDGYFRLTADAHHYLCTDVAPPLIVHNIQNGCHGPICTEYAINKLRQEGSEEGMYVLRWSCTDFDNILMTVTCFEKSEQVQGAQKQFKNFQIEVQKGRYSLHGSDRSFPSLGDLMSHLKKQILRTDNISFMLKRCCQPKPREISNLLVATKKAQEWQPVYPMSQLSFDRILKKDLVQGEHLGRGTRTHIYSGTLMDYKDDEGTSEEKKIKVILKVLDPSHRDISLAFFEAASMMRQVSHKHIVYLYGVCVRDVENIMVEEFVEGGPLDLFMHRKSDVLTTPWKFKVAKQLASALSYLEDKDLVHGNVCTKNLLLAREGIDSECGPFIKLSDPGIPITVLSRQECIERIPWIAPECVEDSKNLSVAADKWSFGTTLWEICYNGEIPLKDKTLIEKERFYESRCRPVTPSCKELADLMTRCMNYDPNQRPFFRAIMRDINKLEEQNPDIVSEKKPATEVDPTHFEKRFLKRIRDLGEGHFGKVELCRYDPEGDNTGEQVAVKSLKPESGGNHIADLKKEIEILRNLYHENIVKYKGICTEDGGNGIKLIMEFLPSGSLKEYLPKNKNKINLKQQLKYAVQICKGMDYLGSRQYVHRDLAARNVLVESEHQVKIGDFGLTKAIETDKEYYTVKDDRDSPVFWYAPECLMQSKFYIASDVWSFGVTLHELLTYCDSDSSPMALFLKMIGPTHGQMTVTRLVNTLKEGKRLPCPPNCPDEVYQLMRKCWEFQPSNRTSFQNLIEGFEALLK
endpoint.label: pIC50
Give bare numbers, as −log10 of the molar value.

Sample `Cn1cc(-c2cc3nccnc3c(NC[C@@H]3CNCCO3)n2)cn1` — what was its pIC50?
6.30

----------
experimental.target: albumin (Homo sapiens)
Sequence (P02768 whole entry): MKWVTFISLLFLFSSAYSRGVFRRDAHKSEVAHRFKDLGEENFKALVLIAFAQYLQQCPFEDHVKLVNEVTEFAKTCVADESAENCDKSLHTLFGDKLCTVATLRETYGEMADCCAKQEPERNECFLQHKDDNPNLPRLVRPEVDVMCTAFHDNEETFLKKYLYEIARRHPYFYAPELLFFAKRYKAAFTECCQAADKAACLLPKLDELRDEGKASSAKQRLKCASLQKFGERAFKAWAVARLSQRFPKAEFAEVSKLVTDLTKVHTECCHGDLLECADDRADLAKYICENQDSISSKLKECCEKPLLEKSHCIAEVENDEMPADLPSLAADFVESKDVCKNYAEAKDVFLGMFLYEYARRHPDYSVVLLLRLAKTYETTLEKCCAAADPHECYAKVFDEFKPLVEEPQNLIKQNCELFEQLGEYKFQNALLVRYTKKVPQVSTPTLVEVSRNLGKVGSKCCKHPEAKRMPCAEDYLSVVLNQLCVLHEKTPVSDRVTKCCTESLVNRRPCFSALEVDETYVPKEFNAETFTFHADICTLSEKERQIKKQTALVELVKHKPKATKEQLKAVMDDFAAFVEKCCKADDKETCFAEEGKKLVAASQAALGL
test.description: Binding affinity to human serum albumin by HPLC analysis
Type: ADME
condition: read-out: PB (converted)
endpoint.label: fraction unbound

Here's what some known entries look like.
c1cnc2c(NC[C@H]3CCCNC3)nc(-c3cc[nH]n3)cc2n1 | 0.21
CN(C)c1ccc(-c2cc3nccnc3c(NC[C@@H]3CNCCC3(F)F)n2)cn1 | 0.05
Cc1ccc(-c2cc3ncn(C)c(=O)c3c(NC[C@H]3CCCNC3)n2)cc1 | 0.1
Cn1cc(-c2cc3nccnc3c(NC[C@H]3CCCNC3)n2)cn1 | 0.25
CN(C)c1ccc(-c2cc3nccnc3c(NC[C@H]3CNCCN3C)n2)cn1 | 0.07

Kindly give each listed record's fraction unbound.
1. Cc1ccc(-c2cc3nccnc3c(NC[C@H]3CCCNC3)n2)cc1
2. Cc1ccc(-c2cc3nccnc3c(NC[C@H]3CCCNC3)n2)s1
3. c1cnc2c(NC[C@H]3CCCNC3)nc(-c3cn[nH]c3)cc2n1
4. CN(C)c1ccc(-c2cc3nccnc3c(NC[C@@H]3CNCCN3C)n2)cn1
5. CN(C)c1ccc(-c2cc3nccnc3c(NCC(F)(F)F)n2)cn1

1: 0.09; 2: 0.08; 3: 0.24; 4: 0.09; 5: 0.04

For every listed record, write down its fraction unbound.
1. CN(C)c1ccc(-c2cc3nccnc3c(NC[C@@H]3CNCCO3)n2)cn1
2. Cn1cc(-c2cc3nccnc3c(OC[C@H]3CCCNC3)n2)cn1
3. CN(C)c1ccc(-c2cc3nccnc3c(NCC3CNCC(F)(F)C3)n2)cn1 (racemic)
4. Cc1ccc(-c2cc3ncccc3c(NC[C@H]3CCCNC3)n2)cc1
5. CN(C)c1ccc(-c2cc3nccnc3c(CCC3CCCNC3)n2)cn1 (racemic)
6. CN(C)c1ccc(-c2cc3nccnc3c(NCCCCO)n2)cn1

1: 0.12; 2: 0.22; 3: 0.07; 4: 0.05; 5: 0.09; 6: 0.08

# per-item lookup of fraction unbound; items listed below
1. CN(C)c1ccc(-c2cc3nccnc3c(NC[C@H]3CNCCO3)n2)cn1
2. CN(C)c1ccc(-c2cc3ncccc3c(NC[C@H]3CCCNC3)n2)cn1
3. CN(C)c1ccc(-c2cc3nccnc3c(NC[C@H]3CNCCC3(F)F)n2)cn1
4. CN(C)c1ccc(-c2cc3nccnc3c(NC[C@H]3CCCNC3)n2)cn1

[0.11, 0.06, 0.05, 0.08]

Batch lookup, fraction unbound per entry.
1. Cc1ccc(-c2cc3ncncc3c(NC[C@H]3CCCNC3)n2)cc1
2. c1cnc2c(NC[C@H]3CCCNC3)nc(N3CCNCC3)cc2n1

[0.09, 0.3]
